The measured values listed here are drawn from paper PMC5540273.

Measured %Inh by item
- System: CSNK1A1;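 note: KINOMEscan kinase panel screen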
- applied conditions: concentration: 1 μM, replicates: in singlicate; n = 1

Solved entries:
| smiles string | %Inh |
| --- | --- |
| Nc1ncnc2c1ncn2-c1cccc2ccccc12 | 0% |
| Cn1c(=O)c(F)c(Nc2ccc(I)cc2F)c2c(=O)n(OC[C@H](O)CO)cnc21 | 36% |
| CCC(=O)c1c(-c2ccccc2)c2cc(Cl)ccc2c(=O)n1Cc1cc(S(C)(=O)=O)n(CCC(C)(C)O)n1 | 31% |

# input Field: %Inh (CSNK1A1). Entry: COc1cccc(-n2cnc3c(N)ncnc32)c1
# output 31%

# input So what %Inh did Nc1nccc2scc(-c3ccc4c(c3)CCN4C(=O)Cc3ccccc3)c12 get with CSNK1A1?
# output 0%

# input Provide the documented %Inh with CSNK1A1 as the system for Cc1cccc(-c2cc(-c3c[nH]nc3-c3ccccn3)ccn2)c1
# output 0%
